- study system: ANGPTL2
- recorded conditions: ASO, 25 µM
After the bases stand the sugars from the 5' end (letter, count) and the backbone: PS all phosphorothioate, else s phosphorothioate and o phosphodiester by linkage. Methylation of C is not given here. l = locked nucleic acid (LNA); d = 2'-deoxy (DNA)
Criterion: target mRNA inhibition meeting or surpassing 50%. Met: 1 (yes). Not met: 0 (no).

• TTGGTTCGTCAGCCAG (sugars l1 d12 l3, PS) = 1 (yes)
• AAGAAGTTAACAGAGCCATC (sugars l1 d15 l4, PS) = 0 (no)
• CTCCAAATTAAATCCG (sugars l4 d9 l3, PS) = 0 (no)
• GCTCTCATAATCCTAC (sugars l2 d11 l3, PS) = 1 (yes)
• CTGGTTGATGATGCGGTT (sugars l1 d15 l2, PS) = 1 (yes)
• ACCCTCCATCCTTCACC (sugars l4 d11 l2, PS) = 1 (yes)
• GTGGGCAAGAGGGATGC (sugars l1 d14 l2, PS) = 0 (no)
• CATTTTGAGATTCCCCCA (sugars l1 d15 l2, PS) = 0 (no)
• ATTTTGAGATTCCCCCAAA (sugars l1 d14 l4, PS) = 0 (no)
• TAATAGGCACACACCCAGAC (sugars l1 d17 l2, PS) = 0 (no)
• ACCCTCCATCCTTCACC (sugars l3 d12 l2, PS) = 0 (no)
• AGTTGATAGTTTATCTCCT (sugars l2 d15 l2, PS) = 1 (yes)
• CAAAGGCATTTCAGTTCC (sugars l1 d14 l3, PS) = 1 (yes)
• TTGATGATGCGGTTGTA (sugars l3 d12 l2, PS) = 1 (yes)
• AAGAGAGAAGGCAGTGAGAG (sugars l2 d16 l2, PS) = 0 (no)
• ATAGTGGGCAGAGGGGG (sugars l1 d14 l2, PS) = 0 (no)
• GAAGAAAAGAGCACATGG (sugars l3 d11 l4, PS) = 0 (no)
• GTTGATAGTTTATCTCCT (sugars l1 d14 l3, PS) = 1 (yes)
• CCAACACTAACTCGGC (sugars l2 d12 l2, PS) = 1 (yes)
• AGTAGCCTTCTGACCAA (sugars l1 d13 l3, PS) = 1 (yes)
• CTAGTGTGCTCTGGAGC (sugars l1 d14 l2, PS) = 1 (yes)
• CTGGGTTATATTCTCTT (sugars l2 d12 l3, PS) = 0 (no)
• CAGGTCCTTGTACTTGC (sugars l2 d13 l2, PS) = 1 (yes)
• TTATGCACTCGGTTCTCC (sugars l1 d15 l2, PS) = 0 (no)
• TGTTTGGAAATGTTATCT (sugars l3 d11 l4, PS) = 1 (yes)
• ATTGTGGGTTGGAGGGC (sugars l1 d14 l2, PS) = 0 (no)
• GCCAACACTAACTCGGC (sugars l1 d14 l2, PS) = 0 (no)
• ATCAATAGGCAGACAGGC (sugars l2 d14 l2, PS) = 1 (yes)
• TAATTCACCGCCAAATTAC (sugars l3 d13 l3, PS) = 0 (no)
• TTAGTGGAAGGTGTTGG (sugars l3 d12 l2, PS) = 1 (yes)
• GTCATAGAAACTACCCC (sugars l1 d13 l3, PS) = 1 (yes)
• TTGATGATGCGGTTGTAG (sugars l3 d13 l2, PS) = 1 (yes)
• AAGTTGATAGTTTATCTC (sugars l4 d11 l3, PS) = 1 (yes)
• TTTCTAAACTCTCACCCTG (sugars l1 d15 l3, PS) = 0 (no)
• GCTCCGGTAATGGCCC (sugars l1 d12 l3, PS) = 0 (no)
• TAATGGCTGAGATGCAG (sugars l4 d11 l2, PS) = 1 (yes)
• GTTGATGATGCGGTTGTAG (sugars l1 d16 l2, PS) = 0 (no)
• GTTATGCCCATTTCTAGG (sugars l1 d15 l2, PS) = 1 (yes)

Values were extracted from the OligoGym collection.
